System: OCI-AML2
protocol-description: cell viability relative to vehicle control; higher = less cytotoxic;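 note: after 48 h exposure read by CellTiter-Glo luminescence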
condition-summary: 10 µM; SRSF2 genotype: wt/wt
Listed next: entries and their corresponding cell viability.
Express the result in % but write the number alone.

Worked cases, answers included:
{"smiles-string": "COc1cc(C(=O)O)cc(OC)c1OC", "assay-result": 109}
{"smiles-string": "C=C[C@H]1CN2CC[C@H]1C[C@H]2[C@H](O)c1ccnc2ccccc12", "assay-result": 92.1}

// moving on: another record for cell viability
Q: What value of cell viability has been recorded for this entry: COc1ccc2c(c1)/C(=C/c1cnc[nH]1)C(=O)N2
A: 24.6

====

Tested on: MOLM14
protocol-description: cell viability relative to vehicle control; higher = less cytotoxic
condition-summary: 10 µM; SRSF2 genotype: SRSF2 P95H/wt
Structures can show the parent of a compound that is named as a salt.
observed-property: cell viability (%)
Report as a plain number; the unit % is understood.

Consider the worked cases shown below.
{"molecule": "CC12NC(Cc3ccccc31)c1ccccc12 (single isomer, unassigned; (+)) [(+)-MK 801 maleate]", "cell viability, %": 91}
{"molecule": "CC(C)(C)[C@]1(O)CC2OC(=O)CC23C(=O)OC2OC(=O)[C@H](O)C231 (stereo partly drawn) [Bilobalide]", "cell viability, %": 104}

--- query ---
Q: For the molecule shown here, c1csc(-c2ccc(-c3cccs3)s2)c1 , give the reported cell viability.
A: 91.7
